Value source: patent US9957261B2

- TARGET_DESC: rat TAAR1 (Rattus norvegicus (Rat))
- ASSAY_NAME: Radioligand binding assay on rat TAAR1
- CONDITION_INFO: rat TAAR1, membranes of stably transfected HEK-293 cells; second value of mouse/rat pair
- Description: Construction of TAAR Expression Plasmids and Stably Transfected Cell Lines For the construction of expression plasmids the coding sequences of human, rat and mouse TAAR 1 were amplified from genomic DNA essentially as described by Lindemann et al.. The Expand High Fidelity PCR System (Roche Diagnostics) was used with 1.5 mM Mg^2+ and purified PCR products were cloned into pCR2.1-TOPO cloning vector (Invitrogen) following the instructions of the manufacturer. […]
Give measured Ki for each item. Keep answers brief.
Quick note: give the figure in µM, leave out the unit.

The molecule identified as NC1CCc2cc(C(=O)Nc3cnc(C(F)(F)F)cn3)ccc2C1 (stereo not drawn) registered its Ki at 0.0865

Lab book: Ki of Cc1cc(C(=O)Nc2ccc3c(c2)CC[C@H](N)C3)ccn1 noted as 0.147

Briefly, Ki measured for N[C@@H]1CCc2cc(NC(=O)c3ccccc3Cl)ccc2C1 : 0.6

// Ki lookup, molecule = CCCc1cc(C(=O)Nc2ccc3c(c2)CCC(N)C3)nn1CC(F)F (stereo not drawn) , result: 0.0035

Entry Cc1cc(C(=O)Nc2ccc3c(c2)CC[C@@H](N)C3)nc(C(F)(F)F)n1 — recorded Ki = 0.0544

Ki measured on NC1CCc2cc(NC(=O)c3ccnc(C(F)(F)F)c3)ccc2C1 (stereo not drawn) = 0.0072

The recorded Ki for entry N[C@H]1CCc2cc(NC(=O)c3ccnc(C(F)(F)F)c3)ccc2C1 equals 0.0063

// Cc1nc(-c2ccc(C(=O)Nc3ccc4c(c3)OC[C@H](N)C4)cc2)cs1 : Ki value = 0.0034

In plain terms, N[C@H]1CCc2cc(NC(=O)c3ccc4ccccc4c3)ccc2C1 has a documented Ki of 0.001

* * *

- TARGET_DESC: rat TAAR1 (Rattus norvegicus (Rat), UniProt Q923Y9)
- Sequence (Q923Y9 whole entry): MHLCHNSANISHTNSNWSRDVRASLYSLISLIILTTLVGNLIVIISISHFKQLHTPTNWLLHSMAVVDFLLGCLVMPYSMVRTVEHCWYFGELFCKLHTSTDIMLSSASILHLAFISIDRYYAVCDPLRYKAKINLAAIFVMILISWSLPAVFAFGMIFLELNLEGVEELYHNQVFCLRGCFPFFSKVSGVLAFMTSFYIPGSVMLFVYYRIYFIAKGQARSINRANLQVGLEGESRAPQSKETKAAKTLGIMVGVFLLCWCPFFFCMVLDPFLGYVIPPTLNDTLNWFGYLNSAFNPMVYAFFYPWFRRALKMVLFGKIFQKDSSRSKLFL
- ASSAY_NAME: Radioligand binding assay on rat TAAR1
- CONDITION_INFO: rat TAAR1, membranes of stably transfected HEK-293 cells; second value of mouse/rat pair
REPORTED_ENDPOINT: Ki

The reported value for CCCc1cc(C(=O)Nc2ccc3c(c2)OC[C@H](N)C3)nn1CC(F)F [Example 10] in terms of Ki is 0.0034 µM

Summary for this molecule, N[C@H]1CCc2cc(NC(=O)Nc3ccc(C(F)(F)F)nc3)ccc2C1 [Example 16] : Ki is 0.0023 µM

The reported value for Cc1onc(C(=O)Nc2ccc3c(c2)CC[C@H](N)C3)c1Cl [Example 26] in terms of Ki is 0.0199 µM

Form field Ki, entry NC1CCc2cc(C(=O)Nc3ccc(C4CC4)cc3)ccc2C1 (stereo not drawn) [Example 60] : 0.0213 µM

# Ki (molecule: N[C@H]1CCc2cc(Nc3cccc(Cl)c3)ccc2C1 [Example 68] ) is 0.0099 µM

The reported Ki of the molecule N[C@H]1CCc2cc(NC(=O)c3cnn(-c4ccc(Cl)c(Cl)c4)c3)ccc2C1 [Example 28] was 0.0003 µM

* * *

- TARGET_DESC: rat TAAR1 (Rattus norvegicus (Rat), UniProt Q923Y9)
- ASSAY_NAME: Radioligand binding assay on rat TAAR1
- CONDITION_INFO: rat TAAR1, membranes of stably transfected HEK-293 cells; second value of mouse/rat pair
Grouping rule (Ki): LOW = under 0.003 µM, MEDIUM = from 0.003 µM up to 0.01 µM, HIGH = 0.01 µM and over

Query: Which band does NC1CCc2cc(C(=O)Nc3cccc(OC(F)(F)F)c3)ccc2C1 (centres unmarked) fall in?
Result: LOW

Query: Which category fits this record: N#Cc1ccc(NC(=O)c2ccc3c(c2)CCC(N)C3)cc1 (centres unmarked)
Result: MEDIUM

Query: Could you tell me which band N[C@H]1CCc2cc(Nc3ccc(C(F)(F)F)cn3)ccc2C1 belongs to?
Result: LOW

Query: # classify by Ki band: CCc1n[nH]c(C(=O)Nc2ccc3c(c2)OC[C@H](N)C3)c1C
Result: HIGH

Query: Please report the category associated with CCCc1cc(C(=O)Nc2ccc3c(c2)CC[C@@H](N)C3)nn1CC(F)F , nothing else.
Result: MEDIUM

Query: Place this molecule in its band: N[C@H]1CCc2cc(NC(=O)Nc3ccc(OC(F)(F)F)cc3)ccc2C1
Result: LOW

Query: # bin lookup: classify COc1cccc(Nc2ccc3c(c2)CC[C@H](N)C3)c1 by its Ki
Result: HIGH

Query: Using the reported Ki, which band applies to CCOc1[nH]nc(C(=O)Nc2ccc3c(c2)OC[C@H](N)C3)c1C ?
Result: HIGH

Query: Quick check: band for N[C@H]1CCc2cc(NC(=O)c3cccnc3F)ccc2C1
Result: HIGH

Query: Assign a category based on measured Ki for CCCc1cc(C(=O)Nc2ccc3c(c2)CC[C@H](N)C3)nn1CC(F)F and give only the class name.
Result: LOW

Query: Bin this entry: N[C@H]1CCc2cc(Nc3ccc(C4CC4)cc3)ccc2C1
Result: MEDIUM

Query: Textbook exercise: identify the category of the molecule given here, N[C@H]1CCc2cc(NC(=O)NCc3ccc(Cl)cn3)ccc2C1 , according to its measured value.
Result: HIGH

Query: Exam item: assign N[C@H]1CCc2cc(NC(=O)NCc3ccc(Cl)cc3)ccc2C1 to the correct category.
Result: MEDIUM

Query: Form: Item = NC1CCc2cc(NC(=O)c3n[nH]c(C4CC4)c3Br)ccc2C1 (centres unmarked) ; Class = ?
Result: MEDIUM

Query: In plain terms, what class is N[C@H]1CCc2cc(NC(=O)c3[nH]nc(-c4ccc(Cl)o4)c3Cl)ccc2C1 ?
Result: LOW

Query: Class (by measured Ki) for N[C@H]1CCc2cc(NC(=O)Nc3ccc(C4CC4)cc3)ccc2C1
Result: LOW

Query: Which bin, given its Ki, does N[C@H]1CCc2cc(NC(=O)c3ccc(F)c(F)c3)ccc2C1 occupy?
Result: LOW

Query: Lab log: N[C@H]1CCc2cc(NC(=O)Nc3ccc(C(F)(F)F)cc3)ccc2C1 — assign Ki category
Result: LOW

Query: Consider Cc1cc(C(=O)Nc2ccc3c(c2)OC[C@H](N)C3)nc(C(F)(F)F)n1 . To which Ki class does it belong?
Result: HIGH

Query: Each molecule maps to one class by Ki. Which class for N[C@H]1CCc2cc(NC(=O)NCc3cccc(OC(F)(F)F)c3)ccc2C1 ?
Result: MEDIUM

Query: Place this molecule in its band: N[C@H]1CCc2cc(Nc3ccc(F)cc3)ccc2C1
Result: HIGH

Query: Form: Item = N[C@H]1COc2cc(Nc3ncc(C(F)(F)F)cn3)ccc2C1 ; Class = ?
Result: HIGH

Query: Hey, which category is N[C@@H]1CCc2cc(NC(=O)c3ccc(Cl)cc3)ccc2C1 in, do you know?
Result: MEDIUM

Query: Quick check: band for CCn1nc(C(=O)Nc2ccc3c(c2)OC[C@H](N)C3)c(Br)c1OCC(F)F
Result: LOW

Query: Exercise: read the entry CCOc1ccc(NC(=O)c2ccc3c(c2)CCC(N)C3)cn1 (centres unmarked) and state which class it falls under.
Result: HIGH

Query: # bin label for N#Cc1ccc(C(=O)Nc2ccc3c(c2)OC[C@H](N)C3)cc1F
Result: MEDIUM

Query: Hey, which category is N[C@H]1CCc2cc(C(=O)Nc3cccc(OC(F)(F)F)c3)ccc2C1 in, do you know?
Result: LOW

Query: # bin lookup: classify CCc1ccc(NC(=O)Nc2ccc3c(c2)CC[C@H](N)C3)cc1 by its Ki
Result: LOW

Query: Hey, which category is N[C@H]1CCc2cc(Nc3cccc(OC(F)(F)F)c3)ccc2C1 in, do you know?
Result: MEDIUM

Query: # bin lookup: classify NC1CCc2cc(C(=O)Nc3ccc(C(F)(F)F)cc3)ccc2C1 (centres unmarked) by its Ki
Result: MEDIUM

Query: Dear colleague, I would appreciate it if you could identify the bin for N[C@H]1COc2cc(NC(=O)c3ccnc(C(F)(F)F)c3)ccc2C1 and reply at your convenience.
Result: MEDIUM

Query: Band of N[C@H]1COc2cc(NC(=O)c3ncc(C(F)(F)F)cn3)ccc2C1 ?
Result: HIGH

Query: Which bin, given its Ki, does N[C@@H]1CCc2cc(C(=O)Nc3cccc(OC(F)(F)F)c3)ccc2C1 occupy?
Result: MEDIUM

Query: Form field 'band' for N[C@H]1COc2cc(NC(=O)c3ccc(F)c(F)c3)ccc2C1
Result: HIGH

Query: Tag the class for N[C@H]1CCc2cc(Nc3ncc(C(F)(F)F)cn3)ccc2C1
Result: MEDIUM

Query: Returns: class label. Input: Cc1cc(C(=O)Nc2ccc3c(c2)CC[C@H](N)C3)nc(C(F)(F)F)n1
Result: HIGH

Query: Tag the class for N[C@H]1CCc2cc(NC(=O)c3ccc(OCC(F)(F)F)nc3)ccc2C1
Result: LOW
